Molecular target: P2X purinoceptor 7 (Homo sapiens)
Sequence (Q99572 whole entry): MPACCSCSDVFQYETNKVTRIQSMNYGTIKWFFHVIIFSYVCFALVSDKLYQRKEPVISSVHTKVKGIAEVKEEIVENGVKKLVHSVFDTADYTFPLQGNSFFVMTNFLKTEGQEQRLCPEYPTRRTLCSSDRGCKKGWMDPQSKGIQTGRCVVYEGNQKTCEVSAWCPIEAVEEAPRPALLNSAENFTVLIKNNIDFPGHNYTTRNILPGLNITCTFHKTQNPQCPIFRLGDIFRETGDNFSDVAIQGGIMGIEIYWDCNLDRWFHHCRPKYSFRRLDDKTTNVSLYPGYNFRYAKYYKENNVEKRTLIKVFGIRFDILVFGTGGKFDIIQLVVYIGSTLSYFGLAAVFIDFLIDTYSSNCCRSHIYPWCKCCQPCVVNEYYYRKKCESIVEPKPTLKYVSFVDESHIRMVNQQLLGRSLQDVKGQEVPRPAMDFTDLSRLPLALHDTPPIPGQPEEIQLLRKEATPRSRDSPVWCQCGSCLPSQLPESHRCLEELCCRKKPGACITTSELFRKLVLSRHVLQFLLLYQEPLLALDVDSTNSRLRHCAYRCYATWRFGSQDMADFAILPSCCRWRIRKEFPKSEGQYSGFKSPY
endpoint: IC50 (nM)

Please review the entries below; each comes with its answer.
compound	uom	IC50
O=C1C(=O)N(c2cccc3c2CCCC3)CCN1Cc1ccc(F)cc1Cl	nM	50.1
Cc1ccccc1N1CCN(Cc2ccccc2Cl)C(=O)C1=O	nM	126
Cc1nn(-c2ccccc2)c(C(C)C)c1CC(=O)NCc1ccc(F)cc1Cl	nM	631

[1] Cc1ccc(N2C[C@@H](C(=O)NCc3ccc(F)cc3Cl)N(C)C2=O)cn1
[2] O=C(c1ccc(F)cc1Cl)N1CCN(c2ccccc2Cl)C(=O)C1
[3] Cc1cccc(Cl)c1CNC(=O)Cc1c(C)nn(CC(C)(C)O)c1C
[4] O=C(NCc1cccc(C(F)(F)F)c1Cl)[C@@H]1CCC(=O)N1C1CCC1
// query # desc sort on IC50 across 4 compounds Put the labels in the requested order and list them out.
// result 3, 1, 2, 4
(3: 200 nM, 1: 63.1 nM, 2: 39.8 nM, 4: 2 nM)

[a] O=C(c1ccc(F)cc1Cl)N1CCn2c(nnc2-c2cnc(Cl)cn2)C1
[b] Cc1cc(Br)ccc1N1CCN(Cc2ccc(F)cc2Cl)C(=O)C1=O
// query So which one has the bigger IC50 here, a or b ? # reply format: chosen label
// result a
(a: 200 nM, b: 79.4 nM)

###

Target chain: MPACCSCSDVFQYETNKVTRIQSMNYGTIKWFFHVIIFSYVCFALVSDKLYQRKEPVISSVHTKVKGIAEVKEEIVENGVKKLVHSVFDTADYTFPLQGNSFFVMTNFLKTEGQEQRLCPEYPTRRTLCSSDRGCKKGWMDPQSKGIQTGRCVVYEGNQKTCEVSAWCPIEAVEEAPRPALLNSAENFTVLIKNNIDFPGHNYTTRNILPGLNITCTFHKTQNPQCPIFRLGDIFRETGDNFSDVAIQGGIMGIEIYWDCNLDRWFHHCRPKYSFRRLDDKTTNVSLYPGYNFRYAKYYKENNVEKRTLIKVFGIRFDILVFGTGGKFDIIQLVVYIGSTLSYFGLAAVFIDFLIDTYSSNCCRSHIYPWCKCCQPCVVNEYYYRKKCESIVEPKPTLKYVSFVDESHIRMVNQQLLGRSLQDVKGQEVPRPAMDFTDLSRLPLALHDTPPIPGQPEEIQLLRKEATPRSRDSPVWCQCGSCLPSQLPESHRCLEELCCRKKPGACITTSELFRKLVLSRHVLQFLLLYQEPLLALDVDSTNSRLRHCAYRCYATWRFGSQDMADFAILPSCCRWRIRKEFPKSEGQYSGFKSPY
endpoint: IC50 (nM)

Please review the entries below; each comes with its answer.
compound	IC50 (nM)
COc1ccnc(N2C[C@@H](C(=O)NCc3ccc(Cl)cc3Cl)N(C)C2=O)n1	20
CN1C(=O)N(CCCN2CCOCC2)CC1C(=O)NCc1cccc(C(F)(F)F)c1Cl (stereo not drawn)	50.1
Cc1cc(F)cc(C)c1N1CCN(Cc2ccc(F)cc2Cl)C(=O)C1=O	39.8
Cc1ccc(N2CCCC2)cc1N1CCN(C(=O)c2cccc(C(F)(F)F)c2Cl)CC1=O	79.4
CN1C(=O)NC[C@H]1C(=O)NCc1ccc(F)c(C(F)(F)F)c1	100

[P] O=C(NCc1ccc(F)c(F)c1Cl)[C@@H]1CCC(=O)N1C1CCC1
[Q] CCN1C(=O)C(C)(C)CC1C(=O)NCc1ccc(Cl)cc1Cl (stereo not drawn)
[R] Cc1nn(-c2ncccc2C(F)(F)F)c(C)c1CC(=O)NCc1ccc(F)cc1Cl
// query # desc sort on IC50 across 3 compounds Put the labels in the requested order and list them out.
// result R, Q, P

[1] O=C(c1ccc(F)cc1Cl)N1CCn2c(-c3ccc(F)cn3)cnc2C1
[2] CN1C(=O)CC[C@@H]1C(=O)NCc1ccc(F)cc1C(F)(F)F
[3] CN1[C@H](C(=O)NCc2cccc(C(F)(F)F)c2Cl)CCS1(=O)=O
[4] O=C1C(=O)N(c2ccccc2)CCN1Cc1ccc(F)cc1Cl
// query Your job: order these 4 records by IC50, ascending. Put the labels in the requested order and list them out.
// result 3, 1, 2, 4

[a] Cn1nccc1CC(=O)NCc1ccc(Cl)cc1Cl
[b] Cc1nn(-c2ccccc2)c(C)c1CC(=O)NCc1ccccc1Br
[c] CN1C(=O)N(c2cncnc2)C[C@H]1C(=O)NCc1cccc(C(F)(F)F)c1Cl
[d] N#Cc1cc(F)ccc1N1CCN(C(=O)c2cccc(Cl)c2Cl)CC1=O
[e] CN1C[C@@H](C(=O)NCc2ccc(Cl)c(C(F)(F)F)c2)N(C)C1=O
// query # desc sort on IC50 across 5 compounds Put the labels in the requested order and list them out.
// result b, a, e, c, d

[A] CN1C(=O)N(C2CCNCC2)CC1C(=O)NCc1cccc(C(F)(F)F)c1Cl (stereo not drawn)
[B] O=C(c1cccc(C(F)(F)F)c1F)N1CCN(c2ccc(F)cc2Cl)C(=O)C1
// query So which one has the bigger IC50 here, A or B ? # reply format: chosen label
// result B
